# testTarget: T1, recombinant purified human IL-12 p70 (human, UniProt P29459 23-219)
# T1 construct: Disulfide-linked heterodimer of p35 and p40; also called hIL-12; Hu IL-12
# T1 sequence 1: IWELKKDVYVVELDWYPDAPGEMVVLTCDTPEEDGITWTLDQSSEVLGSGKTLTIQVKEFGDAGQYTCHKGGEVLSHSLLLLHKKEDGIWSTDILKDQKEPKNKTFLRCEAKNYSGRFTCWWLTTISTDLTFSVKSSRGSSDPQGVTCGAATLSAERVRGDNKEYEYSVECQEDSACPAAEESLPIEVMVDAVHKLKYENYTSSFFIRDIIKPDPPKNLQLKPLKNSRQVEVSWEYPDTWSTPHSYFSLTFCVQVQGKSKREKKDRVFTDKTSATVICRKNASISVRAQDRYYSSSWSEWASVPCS
# T1 sequence 2: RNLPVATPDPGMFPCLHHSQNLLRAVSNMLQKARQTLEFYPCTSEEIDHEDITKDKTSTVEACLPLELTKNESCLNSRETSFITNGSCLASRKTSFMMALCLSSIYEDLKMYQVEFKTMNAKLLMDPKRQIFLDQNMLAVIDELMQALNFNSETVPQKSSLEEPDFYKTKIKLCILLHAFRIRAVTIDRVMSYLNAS
# assayInfo: SPR (Biacore) according to Example 1.1.B
measuredQuantity: kon (M⁻¹ s⁻¹)
Give bare numbers, in M⁻¹ s⁻¹.

# binder, unitSymbol, assayResult
data = [
    ("additional humanized anti-IL-12 antibody 8E1.5 (antibody, IgG1, V domains shown, IgG1/kappa) VH: EVQLVESGGGLVQPGGSLRLSCAASGFTFSDYGMVWVRQAPGKGLEWVASISSGSSNIYYADTVKGRFTISRDNAKNTLYLQMNSLRAEDTAVYYCARNPYWGQGTLVTVSS VL: DIQMTQSPSSLSASVGDRVTITCKASQNVGTNVAWYQQKPGKAPKGLIYSASHRYSGVPDRFSGSGSGTDFTLTISSLQPEDFATYYCQQYNSYPLTFGGGTKVEIKR", "M⁻¹ s⁻¹", "1.6e+06"),
    ("additional humanized anti-IL-12 antibody 1A6.10 (antibody, human IgG1, V domains shown, Only variable domains tied to it) VH: EVTLRESGPGLVKPTQTLTLTCTLYGFSLSTSGMGVSWIRQPPGKGLEWLAHIWWDGDNYYNPSLKSQLTISKDTSKNQVVLKLTSVDPVDTATYYCARRTRVNYAMDYWGQGTLVTVSS VL: DIQMTQSPSSLSASVGDRVTITCKASQSVSNDVAWYQQKPGKAPKLLIYYASNRYTGVPDRFSGSGYGTDFTFTISSLQPEDIATYYCQQDYNSPWTFGGGTKVEIKR", "M⁻¹ s⁻¹", 320000),
    ("additional humanized anti-IL-12 antibody 1A6.12 (antibody, human IgG1, V domains shown, Only variable domains tied to it) VH: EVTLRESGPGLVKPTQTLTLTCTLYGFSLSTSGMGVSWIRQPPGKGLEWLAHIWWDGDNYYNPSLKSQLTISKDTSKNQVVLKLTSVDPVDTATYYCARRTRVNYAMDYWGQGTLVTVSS VL: DIQMTQSPSSLSASVGDRVTITCKASQSVSNDVAWFQQKPGKAPKLLIYYASNRYTGVPDRFSGSGYGTDFTFTISSLQPEDIATYYCQQDYNSPWTFGGGTKVEIKR", "M⁻¹ s⁻¹", 740000),
    ("additional humanized anti-IL-12 antibody 8E1.6 (antibody, V domains shown, IgG1/kappa, expressed in 293T/17 cells from pVg1.D.Tt (D356E L358M, L234A L235A) and pVk) VH: EVQLVESGGGLVQPGGSLRLSCAASGFTFSDYGMVWVRQAPGKGLEWVASISSGSSNIYYADTVKGRFTISRDDAKNTLYLQMNSLRAEDTAVYYCARNPYWGQGTLVTVSS VL: DIQMTQSPSSLSASVGDRVTITCKASQNVGTNVAWYQQKPGKAPKGLIYSASHRYSGVPSRFSGSGSGTDFTLTISSLQPEDFATYYCQQYNSYPLTFGGGTKVEIKR", "M⁻¹ s⁻¹", "1.7e+06"),
]

Request: Give the reported kon for this binder. additional humanized anti-IL-12 antibody 8E1.4 (antibody, IgG1, V domains shown, IgG1/kappa) VH: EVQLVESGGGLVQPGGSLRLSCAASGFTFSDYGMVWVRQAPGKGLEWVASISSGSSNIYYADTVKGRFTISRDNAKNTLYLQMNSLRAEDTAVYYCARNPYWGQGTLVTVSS VL: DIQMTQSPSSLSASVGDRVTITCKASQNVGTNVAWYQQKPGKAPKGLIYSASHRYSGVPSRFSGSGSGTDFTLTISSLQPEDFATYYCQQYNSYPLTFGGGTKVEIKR
Response: 800000
